Measured inhibition at 10 µM accompanies every entry in the list below.
# target-under-test: mGluR5 receptor (pig) (Sus scrofa)
# Construct: 450 μg protein from brain homogenate is incubated with 5 nM ^3[H]-MPEP; from tissue; host or cells: pig brain halves without medulla, cerebellum and pons
# procedure-details: [3H]-MPEP bond in the mGluR5 receptor bond assay (pig brain homogenate)
# Assay type: binding
# condition-notes: 10 μM test compound; 5 nM [3H]-MPEP; 450 μg protein pig brain homogenate; 60 min room temperature
reported-endpoint: inhibition at 10 µM (%)

In [3]: df
Out[3]:
                                 smiles                   target_under_test    reported_endpoint  quantity_unit  recorded_measurement
0         COc1ccccc1CCNC(=O)C#Cc1ccccc1  mGluR5 receptor (pig) (Sus scrofa)  inhibition at 10 µM              %                   110
1     CN(CCc1ccccc1)C(=O)C#Cc1ccccc1C#N  mGluR5 receptor (pig) (Sus scrofa)  inhibition at 10 µM              %                    40
2  Cc1ccc(C#CC(=O)N(C)CCc2ccccc2)c(C)c1  mGluR5 receptor (pig) (Sus scrofa)  inhibition at 10 µM              %                    51
3   Cc1cc(C#CC(=O)NCCc2cccc(Cl)c2)ccc1F  mGluR5 receptor (pig) (Sus scrofa)  inhibition at 10 µM              %                    75
4     Cc1cccc(C#CC(=O)N(C)CCc2ccccc2)c1  mGluR5 receptor (pig) (Sus scrofa)  inhibition at 10 µM              %                    97
5       Cc1cc(C#CC(=O)NCCc2ccccn2)ccc1F  mGluR5 receptor (pig) (Sus scrofa)  inhibition at 10 µM              %                    82
6    O=C(C#Cc1cccs1)NCCc1ccc(Cl)c(Cl)c1  mGluR5 receptor (pig) (Sus scrofa)  inhibition at 10 µM              %                    88

----------
# target-under-test: mGluR5 receptor (pig) (Sus scrofa, UniProt I3LUI7)
# Construct: 450 μg protein from brain homogenate is incubated with 5 nM ^3[H]-MPEP; from tissue; host or cells: pig brain halves without medulla, cerebellum and pons
# Sequence (I3LUI7 19-1212): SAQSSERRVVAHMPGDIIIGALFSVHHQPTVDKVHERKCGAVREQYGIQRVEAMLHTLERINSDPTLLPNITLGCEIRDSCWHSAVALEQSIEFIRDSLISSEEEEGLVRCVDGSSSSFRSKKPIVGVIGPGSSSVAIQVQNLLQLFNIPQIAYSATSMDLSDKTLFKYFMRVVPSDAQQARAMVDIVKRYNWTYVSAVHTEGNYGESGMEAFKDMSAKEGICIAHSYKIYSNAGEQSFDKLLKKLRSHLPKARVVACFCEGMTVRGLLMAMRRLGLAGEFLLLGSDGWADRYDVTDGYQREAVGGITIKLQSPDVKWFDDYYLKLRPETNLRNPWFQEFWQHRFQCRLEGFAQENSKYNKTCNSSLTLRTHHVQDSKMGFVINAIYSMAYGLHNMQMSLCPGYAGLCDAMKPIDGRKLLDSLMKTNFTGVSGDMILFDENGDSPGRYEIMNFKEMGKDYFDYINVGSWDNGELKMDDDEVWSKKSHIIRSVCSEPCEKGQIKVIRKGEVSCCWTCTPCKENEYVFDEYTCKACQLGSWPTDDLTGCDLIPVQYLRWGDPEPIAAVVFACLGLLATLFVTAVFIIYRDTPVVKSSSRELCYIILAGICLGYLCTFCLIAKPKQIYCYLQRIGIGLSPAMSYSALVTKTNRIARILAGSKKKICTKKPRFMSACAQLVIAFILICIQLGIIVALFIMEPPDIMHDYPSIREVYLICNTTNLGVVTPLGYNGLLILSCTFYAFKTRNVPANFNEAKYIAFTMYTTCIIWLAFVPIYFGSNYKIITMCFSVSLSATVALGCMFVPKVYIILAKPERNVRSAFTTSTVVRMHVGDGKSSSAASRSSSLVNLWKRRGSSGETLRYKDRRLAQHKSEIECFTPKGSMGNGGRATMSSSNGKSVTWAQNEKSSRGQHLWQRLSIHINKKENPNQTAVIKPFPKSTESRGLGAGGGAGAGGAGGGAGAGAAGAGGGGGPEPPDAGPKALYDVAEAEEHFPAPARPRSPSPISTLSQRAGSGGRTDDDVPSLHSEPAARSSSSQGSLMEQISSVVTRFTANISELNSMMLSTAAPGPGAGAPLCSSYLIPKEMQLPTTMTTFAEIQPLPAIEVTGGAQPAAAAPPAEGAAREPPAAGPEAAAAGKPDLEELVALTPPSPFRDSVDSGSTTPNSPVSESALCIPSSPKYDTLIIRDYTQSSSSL
# procedure-details: [3H]-MPEP bond in the mGluR5 receptor bond assay (pig brain homogenate)
# Assay type: binding
# condition-notes: 10 μM test compound; 5 nM [3H]-MPEP; 450 μg protein pig brain homogenate; 60 min room temperature
Measured inhibition at 10 µM accompanies every entry in the list below.
reported-endpoint: inhibition at 10 µM (%)

                                    compound                         target_under_test  recorded_measurement
 0  O=C(C#Cc1cccc(Cl)c1)NCCc1cccc(Cl)c1 [Example 93]  mGluR5 receptor (pig) (Sus scrofa, UniProt I3LUI7)                    89
 1  COc1ccccc1CCNC(=O)C#Cc1ccc(F)c(C)c1 [Example 134]  mGluR5 receptor (pig) (Sus scrofa, UniProt I3LUI7)                    77
 2  COc1cccc(C#CC(=O)NCCc2c[nH]c3ccccc23)c1 [Example 87]  mGluR5 receptor (pig) (Sus scrofa, UniProt I3LUI7)                    42
 3  O=C(C#Cc1cccs1)NCC(c1ccccc1)c1ccccc1 [Example 96]  mGluR5 receptor (pig) (Sus scrofa, UniProt I3LUI7)                    31
 4  O=C(C#Cc1ccc(F)cc1)NCCc1ccccc1 [Example 72]  mGluR5 receptor (pig) (Sus scrofa, UniProt I3LUI7)                    57
 5  COc1ccccc1CCNC(=O)C#Cc1cccc(C)c1 [Example 138]  mGluR5 receptor (pig) (Sus scrofa, UniProt I3LUI7)                    97
 6  Cc1ccc(CCNC(=O)C#Cc2ccccc2F)cc1 [Example 149]  mGluR5 receptor (pig) (Sus scrofa, UniProt I3LUI7)                    57
 7  COc1cccc(C#CC(=O)NCCc2ccccn2)c1 [Example 6]  mGluR5 receptor (pig) (Sus scrofa, UniProt I3LUI7)                    82
 8  Cc1cc(C#CC(=O)NCCc2cccs2)ccc1F [Example 56]  mGluR5 receptor (pig) (Sus scrofa, UniProt I3LUI7)                    54
 9  Cc1cc(C#CC(=O)N(C)CCc2ccccc2)ccc1F [Example 41]  mGluR5 receptor (pig) (Sus scrofa, UniProt I3LUI7)                    92
10   O=C(C#Cc1cccs1)NCCc1ccccn1 [Example 25]  mGluR5 receptor (pig) (Sus scrofa, UniProt I3LUI7)                    68
11  CN(CCc1ccccc1)C(=O)C#Cc1cccc(C(F)(F)F)c1 [Example 49]  mGluR5 receptor (pig) (Sus scrofa, UniProt I3LUI7)                   108
12  O=C(C#Cc1cccs1)NCCc1cccc(Cl)c1 [Example 94]  mGluR5 receptor (pig) (Sus scrofa, UniProt I3LUI7)                    84
13  O=C(C#Cc1ccc2[nH]ccc2c1)NCCc1ccccn1 [Example 38]  mGluR5 receptor (pig) (Sus scrofa, UniProt I3LUI7)                    36
14  O=C(C#Cc1ccccc1)NCCc1ccc(Cl)c(Cl)c1 [Example 101]  mGluR5 receptor (pig) (Sus scrofa, UniProt I3LUI7)                    89
15  Cc1cccc(C#CC(=O)NCC(c2ccccc2)c2ccccc2)c1 [Example 71]  mGluR5 receptor (pig) (Sus scrofa, UniProt I3LUI7)                    57
16  COc1cccc(C#CC(=O)NCCc2ccccc2)c1 [Example 81]  mGluR5 receptor (pig) (Sus scrofa, UniProt I3LUI7)                    79
17  N#Cc1cccc(C#CC(=O)NCCc2ccc(Cl)c(Cl)c2)c1 [Example 104]  mGluR5 receptor (pig) (Sus scrofa, UniProt I3LUI7)                    84
18  O=C(C#Cc1ccccc1)NCCc1ccc(Cl)cc1 [Example 137]  mGluR5 receptor (pig) (Sus scrofa, UniProt I3LUI7)                    67
19  N#Cc1cccc(C#CC(=O)NCCc2ccc(F)cc2)c1 [Example 99]  mGluR5 receptor (pig) (Sus scrofa, UniProt I3LUI7)                    89
20  Cc1ccc(CCNC(=O)C#Cc2cccc(C)c2)cc1 [Example 70]  mGluR5 receptor (pig) (Sus scrofa, UniProt I3LUI7)                    89
